# Target: Histone deacetylase 1/11/4/6/8
# Assay Procedure: HDAC Activity screening
Metric: IC50 (nM)

Consider the following illustrative entries.
{"Compound Structure String": "O=C(CCCCn1cc(C(=O)NCc2cccs2)c(=O)c2ccccc21)NO", "IC50 (nM)": 390}
{"Compound Structure String": "O=C(CCCCn1cc(C(=O)Nc2ccccc2)c(=O)c2ccccc21)NO", "IC50 (nM)": 32}
{"Compound Structure String": "COc1ccc(NC(=O)c2cn(CCCCC(=O)NO)c3ccccc3c2=O)cc1", "IC50 (nM)": 39}
{"Compound Structure String": "COc1ccc2c(c1)c(=O)c(C(=O)Nc1nc3ccccc3s1)cn2CCCCC(=O)NO", "IC50 (nM)": 28}
{"Compound Structure String": "COc1ccc2c(c1)c(=O)c(C(=O)Nc1ccc(F)cc1)cn2CCCCC(=O)NO", "IC50 (nM)": 32}

A = O=C(CCCCn1cc(C(=O)Nc2ccncc2)c(=O)c2cc(F)ccc21)NO
B = Cc1csc(NC(=O)c2cn(CCCCC(=O)NO)c3ccccc3c2=O)n1
q: Which has the smaller recorded IC50, A or B ? Your choice should be expressed through its label.
a: B

---

# Target: Histone deacetylase 1/11/4/6/8
# Assay Procedure: HDAC Activity screening
Metric: IC50 (µM)

# example entries with known answers
{"Compound": "O=C(CCCCn1cc(C(=O)Nc2ccncc2)c(=O)c2ccccc21)NO [Quinolone-based HDAC inhibitor 4g]", "Target": "Histone deacetylase 1/11/4/6/8", "Metric": "IC50", "Quantitative Readout": 0.09}
{"Compound": "COc1ccc(NC(=O)c2cn(CCCCC(=O)NO)c3ccc(OC)cc3c2=O)cc1 [Quinolone-based HDAC inhibitor 4m]", "Target": "Histone deacetylase 1/11/4/6/8", "Metric": "IC50", "Quantitative Readout": 0.075}
{"Compound": "O=C(CCCCn1cc(C(=O)Nc2ccc(F)cc2)c(=O)c2cc(F)ccc21)NO [Quinolone-based HDAC inhibitor 4q]", "Target": "Histone deacetylase 1/11/4/6/8", "Metric": "IC50", "Quantitative Readout": 0.04}
{"Compound": "COc1ccc(CNC(=O)c2cn(CCCCC(=O)NO)c3ccc(F)cc3c2=O)cc1 [Quinolone-based HDAC inhibitor 4s]", "Target": "Histone deacetylase 1/11/4/6/8", "Metric": "IC50", "Quantitative Readout": 0.33}
{"Compound": "COc1ccc(NC(=O)c2cn(CCCCC(=O)NO)c3ccc(F)cc3c2=O)cc1OC [Quinolone-based HDAC inhibitor 4t]", "Target": "Histone deacetylase 1/11/4/6/8", "Metric": "IC50", "Quantitative Readout": 0.23}
{"Compound": "O=C(CCCCn1cc(C(=O)Nc2nccs2)c(=O)c2ccccc21)NO [Quinolone-based HDAC inhibitor 4h]", "Target": "Histone deacetylase 1/11/4/6/8", "Metric": "IC50", "Quantitative Readout": 0.042}
{"Compound": "O=C(CCCCn1cc(C(=O)Nc2ccc(F)cc2)c(=O)c2ccccc21)NO [Quinolone-based HDAC inhibitor 4b]", "Target": "Histone deacetylase 1/11/4/6/8", "Metric": "IC50", "Quantitative Readout": 0.27}
{"Compound": "COc1ccc2c(c1)c(=O)c(C(=O)Nc1ccc(OC)c(OC)c1)cn2CCCCC(=O)NO [Quinolone-based HDAC inhibitor 4n]", "Target": "Histone deacetylase 1/11/4/6/8", "Metric": "IC50", "Quantitative Readout": 0.15}

a = COc1ccc(NC(=O)c2cn(CCCCC(=O)NO)c3ccc(F)cc3c2=O)cc1 [Quinolone-based HDAC inhibitor 4r]
b = COc1ccc2c(c1)c(=O)c(C(=O)Nc1cc(-c3ccccc3)nn1C)cn2CCCCC(=O)NO [Quinolone-based HDAC inhibitor 4o]
q: Which of the two gives a bigger number for IC50: a or b ? In your reply, give the label of the chosen option.
a: a

a = O=C(CCCCn1cc(C(=O)NC2=CC(c3ccccc3)N=N2)c(=O)c2ccccc21)NO (stereo unspecified) [Quinolone-based HDAC inhibitor 4w]
b = O=C(CCCCn1cc(C(=O)Nc2nc3ccccc3s2)c(=O)c2ccccc21)NO [Quinolone-based HDAC inhibitor 4j]
q: From the recorded data, which exceeds the other in IC50: a or b ? // caller expects the label of the chosen entry
a: a
